# MEASURED ON: HLA-A*01:01 (Homo sapiens, UniProt P04439, A114D/A174V/A182V/D101N/D185E/E176A/E190D/L180R/Q94H/R68K/S129P/T187R/V100A/V91M/W191G)
# TEST NAME: MHC binding assay (UV-ligand exchange, beta2m ELISA)
# RUN CONDITIONS: binding to HLA-A*01:01, ranged by peptide exchange yield

- SUBSTANCE: "37 (RSLDCTVKTY) [compound 37]"
  Peptide exchange: "+++ (≥50% = +++)"
- SUBSTANCE: "84 (EVEGVIDGTYDY) [compound 84]"
  Peptide exchange: "++++ (≥75% = ++++)"
- SUBSTANCE: "20 (TSDTSQYDTY) [compound 20]"
  Peptide exchange: "+++ (≥50% = +++)"
- SUBSTANCE: "40 (LSDLTCNNY) [compound 40]"
  Peptide exchange: "++++ (≥75% = ++++)"
- SUBSTANCE: "25 (FTDLITDESINY) [compound 25]"
  Peptide exchange: "++++ (≥75% = ++++)"
- SUBSTANCE: "80 (LTNDQTLRL) [compound 80]"
  Peptide exchange: "+++ (≥50% = +++)"
- SUBSTANCE: "12 (ITDTSLNLF) [compound 12]"
  Peptide exchange: "++++ (≥75% = ++++)"
- SUBSTANCE: "7 (VTRDDTASY) [compound 7]"
  Peptide exchange: "++ (≥20% = ++)"
- SUBSTANCE: "92 (GQYDDSLQAY) [compound 92]"
  Peptide exchange: "++ (≥20% = ++)"
- SUBSTANCE: "90 (HVDNSNLNY) [compound 90]"
  Peptide exchange: "++++ (≥75% = ++++)"
- SUBSTANCE: "79 (FTDTSSYEY) [compound 79]"
  Peptide exchange: "++++ (≥75% = ++++)"
- SUBSTANCE: "18 (GTDKQDSTLRY) [compound 18]"
  Peptide exchange: "++++ (≥75% = ++++)"
- SUBSTANCE: "50 (RSIDVTGQGF) [compound 50]"
  Peptide exchange: "++ (≥20% = ++)"
- SUBSTANCE: "89 (HVSDVTVNY) [compound 89]"
  Peptide exchange: "++ (≥20% = ++)"
- SUBSTANCE: "58 (GTDQTGKGLEY) [compound 58]"
  Peptide exchange: "+++ (≥50% = +++)"
- SUBSTANCE: "16 (VTQDDTGFY) [compound 16]"
  Peptide exchange: "++++ (≥75% = ++++)"
- SUBSTANCE: "14 (WSDWSNPAY) [compound 14]"
  Peptide exchange: "++++ (≥75% = ++++)"
- SUBSTANCE: "93 (HADLTTLTF) [compound 93]"
  Peptide exchange: "++ (≥20% = ++)"
- SUBSTANCE: "49 (PSDGSMHNY) [compound 49]"
  Peptide exchange: "++++ (≥75% = ++++)"
- SUBSTANCE: "85 (EVQDHSTSSY) [compound 85]"
  Peptide exchange: "++ (≥20% = ++)"
- SUBSTANCE: "83 (TFVDASRTLY) [compound 83]"
  Peptide exchange: "++++ (≥75% = ++++)"
- SUBSTANCE: "34 (LSDLSLADI) [compound 34]"
  Peptide exchange: "++ (≥20% = ++)"
- SUBSTANCE: "82 (VTDVTEEHY) [compound 82]"
  Peptide exchange: "++++ (≥75% = ++++)"
- SUBSTANCE: "60 (HVKDATMGY) [compound 60]"
  Peptide exchange: "+++ (≥50% = +++)"
- SUBSTANCE: "19 (MTDVDRDGTTAY) [compound 19]"
  Peptide exchange: "++++ (≥75% = ++++)"
- SUBSTANCE: "11 (NHITDTSLNLF) [compound 11]"
  Peptide exchange: "++ (≥20% = ++)"
- SUBSTANCE: "33 (ISDGMDSSAHY) [compound 33]"
  Peptide exchange: "++++ (≥75% = ++++)"
- SUBSTANCE: "52 (LTEVEKDATALY) [compound 52]"
  Peptide exchange: "++++ (≥75% = ++++)"

----------
# MEASURED ON: HLA-A*24:02 (Homo sapiens, UniProt P04439, D101N/D140Y/D185E/E176V/E190D/F33S/G103R/G107R/I119L/I121M/I306V/K335N/L105A/L180Q/L300P/N151K/N90K/Q86E/Q94H/R106L/R138H/R89G/T104I/T345S/V100E/W191G/Y123F)
# TEST NAME: MHC binding assay (UV-ligand exchange, beta2m ELISA)
# RUN CONDITIONS: binding to HLA-A*24:02, ranged by peptide exchange yield

- SUBSTANCE: "30 (IYNFRLWDF) [compound 30]"
  Peptide exchange: "++++ (≥75% = ++++)"
- SUBSTANCE: "2 (FFQDSTFSF) [compound 2]"
  Peptide exchange: "++++ (≥75% = ++++)"
- SUBSTANCE: "45 (YFVDVTTRI) [compound 45]"
  Peptide exchange: "+++ (≥50% = +++)"
- SUBSTANCE: "76 (TYLPTDASLSF) [compound 76]"
  Peptide exchange: "++++ (≥75% = ++++)"
- SUBSTANCE: "100 (EYQDFSTLF) [compound 100]"
  Peptide exchange: "++++ (≥75% = ++++)"
- SUBSTANCE: "66 (YHDQTISF) [compound 66]"
  Peptide exchange: "+ (≥10% = +)"
- SUBSTANCE: "95 (VYIDDSVEL) [compound 95]"
  Peptide exchange: "++++ (≥75% = ++++)"
- SUBSTANCE: "67 (QAIDLSLNF) [compound 67]"
  Peptide exchange: "++ (≥20% = ++)"
- SUBSTANCE: "96 (IFVPTDRSL) [compound 96]"
  Peptide exchange: "++ (≥20% = ++)"
- SUBSTANCE: "103 (RQDESYLNF) [compound 103]"
  Peptide exchange: "++ (≥20% = ++)"
- SUBSTANCE: "41 (NYLLYVSDF) [compound 41]"
  Peptide exchange: "++++ (≥75% = ++++)"
- SUBSTANCE: "69 (KSYHDQTISF) [compound 69]"
  Peptide exchange: "++++ (≥75% = ++++)"
- SUBSTANCE: "101 (VYLDASKVPGF) [compound 101]"
  Peptide exchange: "++++ (≥75% = ++++)"
- SUBSTANCE: "9 (IFDETGRF) [compound 9]"
  Peptide exchange: "++ (≥20% = ++)"
- SUBSTANCE: "99 (VYVDTTELAL) [compound 99]"
  Peptide exchange: "++++ (≥75% = ++++)"
- SUBSTANCE: "23 (SYDETKIKF) [compound 23]"
  Peptide exchange: "+ (≥10% = +)"
- SUBSTANCE: "43 (FFTDKTLSF) [compound 43]"
  Peptide exchange: "++++ (≥75% = ++++)"
- SUBSTANCE: "24 (FYDNSVIIF) [compound 24]"
  Peptide exchange: "++ (≥20% = ++)"
- SUBSTANCE: "98 (AFDKTIVKL) [compound 98]"
  Peptide exchange: "++ (≥20% = ++)"
- SUBSTANCE: "102 (IYPDGTLLI) [compound 102]"
  Peptide exchange: "++++ (≥75% = ++++)"
- SUBSTANCE: "55 (VYTDISHHF) [compound 55]"
  Peptide exchange: "++++ (≥75% = ++++)"
- SUBSTANCE: "68 (VFDETKNLL) [compound 68]"
  Peptide exchange: "++ (≥20% = ++)"
- SUBSTANCE: "38 (KLTDNSNQF) [compound 38]"
  Peptide exchange: "++ (≥20% = ++)"
- SUBSTANCE: "97 (RYVNDYTNSF) [compound 97]"
  Peptide exchange: "++++ (≥75% = ++++)"
- SUBSTANCE: "57 (FYDLSIQSF) [compound 57]"
  Peptide exchange: "++++ (≥75% = ++++)"
- SUBSTANCE: "65 (IYQFARLDY) [compound 65]"
  Peptide exchange: "++ (≥20% = ++)"
- SUBSTANCE: "5 (GYIDDVTLI) [compound 5]"
  Peptide exchange: "+++ (≥50% = +++)"
- SUBSTANCE: "54 (QYQDTTVSF) [compound 54]"
  Peptide exchange: "+++ (≥50% = +++)"
- SUBSTANCE: "104 (HLFYDVTVF) [compound 104]"
  Peptide exchange: "++ (≥20% = ++)"

----------
# MEASURED ON: HLA-A*03:01 (Homo sapiens, UniProt P04439)
# TEST NAME: MHC binding assay (UV-ligand exchange, beta2m ELISA)
# RUN CONDITIONS: binding to HLA-A*03:01 ranged by peptide exchange yield
EXPERIMENTAL READOUT: Peptide exchange

- SUBSTANCE: "3 (IVRDLSCRK) [compound 3]"
  MEASURED ON: "HLA-A*03:01 (Homo sapiens, UniProt P04439)"
  EXPERIMENTAL READOUT: "Peptide exchange"
  RESULT: "+++ (≥50% = +++)"
- SUBSTANCE: "47 (RLPAADFTRY) [compound 47]"
  MEASURED ON: "HLA-A*03:01 (Homo sapiens, UniProt P04439)"
  EXPERIMENTAL READOUT: "Peptide exchange"
  RESULT: "++ (≥20% = ++)"
- SUBSTANCE: "29 (RLWDFTMNAK) [compound 29]"
  MEASURED ON: "HLA-A*03:01 (Homo sapiens, UniProt P04439)"
  EXPERIMENTAL READOUT: "Peptide exchange"
  RESULT: "+++ (≥50% = +++)"
- SUBSTANCE: "22 (NLYDWSASY) [compound 22]"
  MEASURED ON: "HLA-A*03:01 (Homo sapiens, UniProt P04439)"
  EXPERIMENTAL READOUT: "Peptide exchange"
  RESULT: "++ (≥20% = ++)"
- SUBSTANCE: "63 (HLYYDVTEK) [compound 63]"
  MEASURED ON: "HLA-A*03:01 (Homo sapiens, UniProt P04439)"
  EXPERIMENTAL READOUT: "Peptide exchange"
  RESULT: "+++ (≥50% = +++)"
